Data origin: ChEMBL document CHEMBL4414574

Parameter: half-life at 1 µM. Scope: all listed entries.
# test.description: Half life in human liver microsomes at 1 uM preincubated for 5 mins followed by NADPH addition and measured after 5 to 30 mins by LC/MS/MS analysis
# Type: ADME, Microsome
Numeric only. Scale: min

| compound | unit.symbol | half-life at 1 µM |
| --- | --- | --- |
| Cc1ccc(-n2c(C)nnc2-c2ccc3c(c2)N(C2CC2)C(C)C(=O)N3C)cc1 (stereo not drawn) | min | 31.5 |
| Cc1ccc(-n2nc(C(=O)N3CCN(C)CC3)nc2-c2ccc3c(c2)N(C2CCCC2)[C@H](C)C(=O)N3C)cc1 | min | 23 |

Read the next record carefully.
Need half-life at 1 µM, item Cc1ccc(-n2nc(C(=O)N3CCN(C)CC3)nc2-c2ccc3c(c2)N(C2CC2)C(C)C(=O)N3C)cc1 (stereo not drawn)
62
